Quick reference: half-life of the listed items.
# protocol.text: Half-life in male CD-1 mouse at 10 mg/kg, po measured after 24 hrs by LC-MS/MS analysis
# Type: ADME, organism-based
# particulars: in vivo
recorded.metric: half-life (h)

                              smiles_record  measured_number
0  Cc1nc(N[C@H](C)c2cccc(C(F)F)c2F)c2cc3c(cc2n1)OCCN3C(=O)C1CCN(C)CC1             1.72
1  Cc1nc(N[C@H](C)c2cccc(C(F)F)c2F)c2cc3c(cc2n1)OCCN3C(=O)C1CCN(C(C)C)CC1             1.65
2  COc1cc2nc(C)nc(N[C@H](C)c3cc(N)cc(C(F)(F)F)c3)c2cc1O[C@H]1CCOC1             1.67

* * *

# protocol.text: Elimination rate constant in male CD-1 mouse at 10 mg/kg, po measured after 24 hrs by LC-MS/MS analysis
# Assay type: ADME, organism-based
# particulars: in vivo
Recorded k el at 24 h by entry
recorded.metric: k el at 24 h (s⁻¹)

>>> df
                              smiles_record  measured_number
0  Cc1nc(N[C@H](C)c2cccc(C(F)F)c2F)c2cc3c(cc2n1)OCCN3C(=O)C1CCN(C(C)C)CC1         0.000117
1  Cc1nc(N[C@H](C)c2cccc(C(F)F)c2F)c2cc3c(cc2n1)OCCN3C(=O)C1CCN(C)CC1         0.000111
2  COc1cc2nc(C)nc(N[C@H](C)c3cc(N)cc(C(F)(F)F)c3)c2cc1O[C@H]1CCOC1         0.000119

* * *

The entries below are paired with their reported Imax.
# System: MIA PaCa-2
# protocol.text: Antiproliferative activity against human MIA PaCa-2 cells expressing KRAS G12C mutant assessed as maximal inhibition of cell proliferation incubated for 14 days in 3-D culture condition relative to control
# Type: functional
# particulars: time 14 day
recorded.metric: Imax (%)

                              smiles_record  recorded_metric  unit_spec  measured_number
0  Cc1nc(N[C@H](C)c2cccc(C(F)F)c2F)c2cc3c(cc2n1)OCCN3C(=O)C1CCN(C(C)C)CC1             Imax          %               86
1  Cc1nc(N[C@H](C)c2cccc(C(F)F)c2F)c2cc3c(cc2n1)OCCN3C(=O)C1CCOCC1             Imax          %               76
2  C=C(F)C(=O)N1CCN(c2nc(OC[C@@H]3CCCN3C)nc3c2CCN(c2cccc4cccc(Cl)c24)C3)C[C@@H]1CC#N             Imax          %               89
3  Cc1nc(N[C@H](C)c2cccc(C(F)F)c2F)c2cc3c(cc2n1)OCCN3C(=O)N1CCN(C)C[C@@H]1C             Imax          %               26

* * *

# protocol.text: Cytotoxicity against human MCF-10A cells assessed as inhibition of cell proliferation
recorded.metric: IC50

                              smiles_record   result
0  Cc1nc(N[C@H](C)c2cccc(C(F)F)c2F)c2cc3c(cc2n1)OCCN3C(=O)C1CCN(C(C)C)CC1  44.6 µM

* * *

Overview of recorded Imax for various compounds
# Test system: MIA PaCa-2
# protocol.text: Antiproliferative activity against human MIA PaCa-2 cells expressing KRAS G12C mutant assessed as maximal inhibition of cell proliferation incubated for 14 days in 3-D culture condition relative to control
# Type: functional
# particulars: time 14 day
recorded.metric: Imax (%)

                              smiles_record  recorded_metric  unit_spec  measured_number
0  Cc1nc(N[C@H](C)c2cccc(C(F)F)c2F)c2cc3c(cc2n1)OCCN3C(=O)C1CN(C)C1             Imax          %               67
1  COc1cc2nc(C)nc(N[C@H](C)c3cc(N)cc(C(F)(F)F)c3)c2cc1O[C@H]1CCOC1             Imax          %               85
2  Cc1nc(N[C@H](C)c2cccc(C(F)F)c2F)c2cc3c(cc2n1)OCCN3C(=O)N1CCN(C)CC1             Imax          %               79
3  Cc1nc(N[C@H](C)c2cccc(C(F)F)c2F)c2cc3c(cc2n1)OCCN3C(=O)C1CCN(C)CC1             Imax          %               82

* * *

# protocol.text: Cmax in male CD-1 mouse at 10 mg/kg, po measured after 24 hrs by LC-MS/MS analysis
# Format: ADME, organism-based
# particulars: in vivo
recorded.metric: Cmax (ng/mL)

In [3]: df
Out[3]:
                              smiles_record  measured_number
0  COc1cc2nc(C)nc(N[C@H](C)c3cc(N)cc(C(F)(F)F)c3)c2cc1O[C@H]1CCOC1              870
1  Cc1nc(N[C@H](C)c2cccc(C(F)F)c2F)c2cc3c(cc2n1)OCCN3C(=O)C1CCN(C)CC1              650
2  Cc1nc(N[C@H](C)c2cccc(C(F)F)c2F)c2cc3c(cc2n1)OCCN3C(=O)C1CCN(C(C)C)CC1              790

* * *

# target: SOS1-KRAS (Homo sapiens, UniProt Q07889)
# Sequence (Q07889 whole entry, looked up, stated change not applied, the tested form may be a part): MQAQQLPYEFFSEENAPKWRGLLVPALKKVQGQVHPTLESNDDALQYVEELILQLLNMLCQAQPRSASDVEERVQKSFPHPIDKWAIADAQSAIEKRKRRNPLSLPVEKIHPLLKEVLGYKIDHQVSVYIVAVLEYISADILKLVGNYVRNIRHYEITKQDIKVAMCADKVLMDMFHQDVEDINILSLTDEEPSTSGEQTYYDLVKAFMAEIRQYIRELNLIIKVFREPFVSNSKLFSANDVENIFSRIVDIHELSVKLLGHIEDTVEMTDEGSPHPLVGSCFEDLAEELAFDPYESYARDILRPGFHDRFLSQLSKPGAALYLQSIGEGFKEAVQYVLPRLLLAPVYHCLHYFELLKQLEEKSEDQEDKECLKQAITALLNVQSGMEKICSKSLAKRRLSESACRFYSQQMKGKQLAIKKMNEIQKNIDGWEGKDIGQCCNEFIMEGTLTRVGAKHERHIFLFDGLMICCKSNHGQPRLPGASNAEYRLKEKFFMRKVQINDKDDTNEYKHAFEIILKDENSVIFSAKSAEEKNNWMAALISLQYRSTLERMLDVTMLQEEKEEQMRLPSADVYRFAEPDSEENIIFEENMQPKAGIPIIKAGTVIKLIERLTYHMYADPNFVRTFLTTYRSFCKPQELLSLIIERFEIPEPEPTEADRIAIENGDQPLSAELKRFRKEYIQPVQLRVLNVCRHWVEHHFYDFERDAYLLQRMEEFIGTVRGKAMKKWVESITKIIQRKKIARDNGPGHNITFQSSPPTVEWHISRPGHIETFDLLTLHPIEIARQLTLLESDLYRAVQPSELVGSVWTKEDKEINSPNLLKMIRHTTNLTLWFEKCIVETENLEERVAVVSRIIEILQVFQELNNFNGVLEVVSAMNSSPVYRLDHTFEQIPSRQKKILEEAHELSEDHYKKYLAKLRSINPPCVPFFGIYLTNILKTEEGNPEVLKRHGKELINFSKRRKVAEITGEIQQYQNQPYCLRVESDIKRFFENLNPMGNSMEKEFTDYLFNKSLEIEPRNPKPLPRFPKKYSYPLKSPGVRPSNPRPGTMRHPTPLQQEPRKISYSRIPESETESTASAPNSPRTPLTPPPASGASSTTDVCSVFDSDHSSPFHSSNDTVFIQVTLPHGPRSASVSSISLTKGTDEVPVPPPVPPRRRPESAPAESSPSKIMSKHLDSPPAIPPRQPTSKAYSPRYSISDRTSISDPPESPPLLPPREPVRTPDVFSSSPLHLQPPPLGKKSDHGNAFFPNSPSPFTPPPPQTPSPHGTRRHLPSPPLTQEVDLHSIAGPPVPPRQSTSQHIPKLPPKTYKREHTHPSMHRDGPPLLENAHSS
# protocol.text: Inhibition of 6His peptide-tagged recombinant human SOS1 (564 to 1049 residues)/N-terminal GST-tagged human recombinant KRAS G12C mutant protein-protein interaction incubated for 1 hrs by HTRF assay
Catalogue of IC50 readings, one per entry.
recorded.metric: IC50 (nM)

In [3]: df
Out[3]:
                              smiles_record                                    target  recorded_metric  unit_spec  measured_number
0  Cc1nc(N[C@H](C)c2cccc(C(F)F)c2F)c2cc3c(cc2n1)OCCN3C(=O)C1CCOCC1  SOS1-KRAS (Homo sapiens, UniProt Q07889)             IC50         nM               19
1  Cc1nc(N[C@H](C)c2cccc(C(F)F)c2F)c2cc3c(cc2n1)OCCN3C(=O)C1CCN(C(C)C)CC1  SOS1-KRAS (Homo sapiens, UniProt Q07889)             IC50         nM              5.1
2  Cc1nc(N[C@H](C)c2cccc(C(F)F)c2F)c2cc3c(cc2n1)OCCN3C(=O)C1CN(C)C1  SOS1-KRAS (Homo sapiens, UniProt Q07889)             IC50         nM               94
3  Cc1nc(N[C@H](C)c2cccc(C(F)F)c2F)c2cc3c(cc2n1)OCCN3C(=O)C1CCN(C)CC1  SOS1-KRAS (Homo sapiens, UniProt Q07889)             IC50         nM              5.6
4  Cc1nc(N[C@H](C)c2cccc(C(F)F)c2F)c2cc3c(cc2n1)OCCN3C(=O)N1CCN(C)C[C@@H]1C  SOS1-KRAS (Homo sapiens, UniProt Q07889)             IC50         nM              481
5  Cc1nc(N[C@H](C)c2cccc(C(F)F)c2F)c2cc3c(cc2n1)OCCN3C(=O)N1CCN(C)CC1  SOS1-KRAS (Homo sapiens, UniProt Q07889)             IC50         nM               24
